TGI for assorted compounds
system: NCI-H522 lung; test: NCI tumour cell line growth inhibition, 48 h

# count of solved cases: 3
> print(dat)
                                   compound  observed.property  reported
1  NS(=O)(=O)c1cc2c(cc1Cl)NC(Cc1ccccc1)NS2(=O)=O (configuration not stated)                TGI  > 100 µM
2  CC(=O)c1ccc(NC(=O)CSc2nnc(-c3cc(-c4ccc(C)cc4)nc4ccccc34)o2)cc1                TGI   9.06 µM
3      CCCn1c(SCC)c2ccccc2c1-c1nc(F)nc(F)n1                TGI  > 100 µM

// moving on: another record for TGI
GET /value?item= C/C(=N\NC(=O)c1ccncc1)c1ccc2ccccc2c1O &field=TGI returns 12.4 µM
